Data credit: PubChem BioAssay (EPA / NIEHS)

Study target: Cellular tumor antigen p53 (Homo sapiens)
Method: TOX21_p53_BLA_p2_ratio: Tox21 HCT-116 p53 Agonism Beta-lactamase Assay, Ratio, Phase 2 (AID 2283592)
Results filed as inconclusive are left out. Activity calls are given as the source filed them. Rule for the calls: active = hit-call score of the fitted dose curve at least 0.9, where 1 is the maximum; inconclusive = response in the unintended direction; inactive = score below 0.9.
Valid outcomes are listed here; reply with one: label 1 = active, label 0 = inactive

| Compound | Assigned category |
| --- | --- |
| C[C@]12CC[C@@H]3c4ccc(O)cc4CC[C@H]3[C@@H]1CCC2=O | label 0 |
| CC(C)(O)c1ccc(CNC(=O)c2cccnc2Oc2ccc3nonc3c2)cc1 | label 0 |
| Cc1ccc2oc(CN(Cc3ccccc3)C(=O)Nc3c(F)cc(F)cc3F)c(-c3ccc(Cl)cc3)c2c1 | label 0 |
| O=c1[nH]sc2ccccc12 | label 0 |

Incoming: Please state the recorded outcome for this compound: c1ccc2ccccc2c1
Outgoing: label 0

Incoming: Please state the recorded outcome for this compound: CC[C@H](NC(=O)c1cc(F)ccc1NS(=O)(=O)c1cccc2cccnc12)c1ccccc1
Outgoing: label 0
